System: SAGPY (Arrowhead (Pygmaea))
test-protocol: Preemergence weed control under flooded paddy conditions
Assay type: in vivo, Sagittaria pygmaea
condition-info: 0.0625 kg/ha, rated 3-4 weeks after treatment
parameter: Herbicidal rating SAGPY
Enter the number alone.

Below are worked cases with known answers.
1) CCOC(=O)COc1ccccc1CC1S/C(=N/c2cc(-n3c(=O)cc(C(F)(F)F)n(C)c3=O)c(F)cc2Cl)N(CC(=O)OCC)C1=O (stereo not shown)    0.0
2) O=C1CSC(=Nc2cc(N3C(=O)C4=C(CCCC4)C3=O)c(F)cc2Cl)N1c1ccccc1    0.0
3) CN1C(=O)CSC1=Nc1cc(N2C(=O)C3=C(CCCC3)C2=O)c(F)cc1Cl    0.0
4) CCOC(=O)CN1CCSC1=Nc1cc(-n2nc(C)n(C(F)F)c2=O)c(F)cc1Cl    0.0
5) CCOC(=O)CN1C(=O)C(F)SC1=Nc1cc(-n2c(=O)cc(C(F)(F)F)n(C)c2=O)c(F)cc1Cl (stereo not shown)    0.0
6) CCOC(=O)CN1C(=O)C(Cc2ccccc2OC(C)C(=O)OC)SC1=Nc1cc(-n2c(=O)cc(C(F)(F)F)n(C)c2=O)c(F)cc1Cl (stereo not shown)    2.0

Give its Herbicidal rating SAGPY value. Item: CCOC(=O)CN1C(=O)C(C)SC1=Nc1cc(-n2c(=O)cc(C(F)(F)F)n(C)c2=O)c(F)cc1Cl (stereo not shown) 1.0
